These entries and their values trace back to PubChem BioAssay (Tox21).

- target.or.test.system: Bile acid receptor (Homo sapiens) (UniProt Q96RI1)
- Sequence (Q96RI1 whole entry, looked up): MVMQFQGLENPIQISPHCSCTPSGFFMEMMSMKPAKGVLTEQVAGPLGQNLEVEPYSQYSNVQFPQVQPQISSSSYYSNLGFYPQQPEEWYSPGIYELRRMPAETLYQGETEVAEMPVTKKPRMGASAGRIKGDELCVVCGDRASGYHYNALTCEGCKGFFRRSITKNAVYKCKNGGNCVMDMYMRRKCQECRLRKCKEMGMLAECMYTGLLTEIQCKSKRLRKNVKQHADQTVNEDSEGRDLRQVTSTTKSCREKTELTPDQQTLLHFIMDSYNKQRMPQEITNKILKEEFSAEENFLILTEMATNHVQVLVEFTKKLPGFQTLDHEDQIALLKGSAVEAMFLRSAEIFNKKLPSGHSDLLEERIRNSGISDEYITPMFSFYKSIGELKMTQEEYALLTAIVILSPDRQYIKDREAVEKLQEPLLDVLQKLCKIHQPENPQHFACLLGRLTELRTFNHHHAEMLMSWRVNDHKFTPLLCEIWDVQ
- assay: qHTS assay to identify small molecule agonists of the farnesoid-X-receptor (FXR) signaling pathway (AID 743220)
- experimental.conditions: HEK293T FXR-UAS-bla, beta-lactamase FRET ratio, 16 h; series mostly up to 62.6 µM
Records with an inconclusive call do not appear. Activity calls are given as the source filed them. Calls follow the shape of the dose curve; as a rule, active = well fitted activation curve with a large enough effect in the signal ratio in the repeat runs (not every such curve was filed as active); inconclusive = weak or mixed curves, or effect the other way; inactive = flat fitted curve, though single readings scatter; the % refers to the signal ratio.

compound	target.or.test.system	outcome
c1ccc(-c2cccc(-c3ccccc3)c2)cc1	Bile acid receptor (Homo sapiens) (UniProt Q96RI1)	inactive
ClC1C(Cl)C(Cl)C(Cl)C(Cl)C1Cl (stereo not drawn)	Bile acid receptor (Homo sapiens) (UniProt Q96RI1)	inactive
NC(=S)Nc1ccccc1	Bile acid receptor (Homo sapiens) (UniProt Q96RI1)	inactive

====

- assay: qHTS assay for small molecule agonists of the p53 signaling pathway - cell viability (AID 651633);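 also: p53RE-bla HCT reporter cells with a stable beta-lactamase p53 reporter; nearly all actives have a fitted effect of over 30% in size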
- experimental.conditions: p53RE-bla HCT-116 viability, ATP luminescence, 16 h; series mostly up to 83.3 µM
- Source text: National Center for Advancing Translational Sciences [NCATS] NIH Chemical Genomics Center [NCGC] U.S. Environmental Protection Agency [EPA] National Institutes of Environmental Health Sciences [NIEHS] National Toxicology Program [NTP] U.S. Food and Drug Administration [FDA] p53, a tumor suppressor protein, is activated following cellular insult, including DNA damage and other cellular stresses. […] The activation of the reporter gene under culture conditions can be detected by fluorescence intensity. […]
Records with an inconclusive call do not appear. Activity calls are given as the source filed them. Calls follow the shape of the full dose curve.
In this exercise, the only acceptable responses are active, inactive

Q: Field: outcome | Entry: N#CC(Br)Br
A: inactive

Q: Returns: the outcome recorded for Nc1ccc(Cl)c(Cl)c1 in this assay.
A: inactive

Q: For this compound, state the assay outcome: CCCCCCCCC(=O)NCc1ccc(O)c(OC)c1
A: inactive

Q: Hi, sorry to bother you, what did the test record for CCOC(=O)C(C)OC(=O)c1cc(Oc2ccc(C(F)(F)F)cc2Cl)ccc1[N+](=O)[O-] (stereo not given) ?
A: inactive

Q: Recorded test outcome, item COc1ccc(C=O)cc1
A: inactive

Q: Record request — test call for CCCCN(CCCC)N=O
A: inactive

Q: Assay outcome for C=C(C)C(=O)OCC1CO1 (stereo not given) : what was it?
A: inactive

Q: Per the records of this test, what outcome belongs to NC(=S)Nc1ccccc1 ?
A: inactive

Q: # outcome recorded in this test, key = c1ccc(P(c2ccccc2)c2ccccc2)cc1
A: inactive

Q: Could you kindly confirm the outcome this assay logged for O=[N+]([O-])c1cccc2ccccc12 ?
A: inactive

Q: How was Cc1ccccc1[N+](=O)[O-] classified in this test?
A: inactive

Q: Please share the test call associated with c1nc[nH]n1 .
A: inactive

Q: Hello, I am checking results. What call was entered for O=S(=O)(Oc1ccc(Cl)cc1)c1ccc(Cl)cc1 ?
A: inactive

Q: Hi, do you know how Nc1ccc(Cl)cc1N came out in this test?
A: inactive

Q: State the result this test recorded for CCC(C)c1cc([N+](=O)[O-])cc([N+](=O)[O-])c1O (stereo not given) .
A: inactive

Q: Hi, sorry to bother you, what did the test record for Oc1cc(Cl)c(Cl)cc1Cl ?
A: inactive

Q: Could you please tell me the result logged for O=[N+]([O-])c1ccc(O)c([N+](=O)[O-])c1 in this assay?
A: inactive

Q: Outcome logged for O=P(Oc1ccccc1)(Oc1ccccc1)Oc1ccccc1 in this assay:
A: inactive

Q: Status in this test for CCCCC(CC)COC(=O)Cl (stereo not given) ?
A: inactive

Q: Outcome? c1ccc(N=Nc2ccccc2)cc1
A: inactive

Q: Please let me know the test result on file for CCN(N=O)C(N)=O .
A: inactive
